Would you mind telling me the reported Inhibition of each entry?
# Organism: Oryctolagus cuniculus
# assayInfo: Inhibition of contraction induced by caffeine on rabbit renal artery
# Format: functional
# Set-up: concentration or dose not given beside the values
Numbers only, in %.

Guide cases for Inhibition, answers given:
compound	uom	valueObserved
O=C(c1ccccc1)N1CC(CCCN2CCN(c3ccc(F)cc3)CC2)Oc2ccccc21 (configuration not stated)	%	8
COc1ccc(CCNCCC2CN(Cc3ccc(OC)c(OC)c3)c3ccccc3O2)cc1OC (configuration not stated)	%	57
COc1ccc(CCNCC2CNc3ccccc3O2)cc1OC (configuration not stated)	%	26

List reported Inhibition for each of these compounds:
1. Fc1ccc(N2CCN(CC3CNc4ccccc4O3)CC2)cc1 (configuration not stated)
2. Fc1ccc(C(OCCNCCCC2CN(Cc3ccccc3)c3ccccc3O2)c2ccc(F)cc2)cc1 (configuration not stated)
3. COc1ccc(CCNCC2CN(C)c3ccccc3O2)cc1OC (configuration not stated)
4. COc1ccc(CCNCCC2CN(S(=O)(=O)c3cccc4ccccc34)c3ccccc3O2)cc1OC (configuration not stated)
5. O=C1Nc2cc3c(cc2OC1CCCN1CCN(c2ccc(F)cc2)CC1)OCCO3 (configuration not stated)
6. CN(CCOC(c1ccc(F)cc1)c1ccc(F)cc1)CC1CNc2ccccc2O1 (configuration not stated)

stdout:
9
5
46
46
22
23

Batch of 5 compounds: report Inhibition for each.
1. CN1CC(CN2CCN(c3ccc(F)cc3)CC2)Oc2ccccc21 (configuration not stated)
2. COc1ccc(CCNCC2CN(Cc3ccccc3)c3ccccc3O2)cc1OC (configuration not stated)
3. Fc1ccc(C(OCCNCC2CN(Cc3ccccc3)c3ccccc3O2)c2ccc(F)cc2)cc1 (configuration not stated)
4. COc1ccc(CCNCCC2CNc3ccccc3O2)cc1OC (configuration not stated)
5. COc1ccc(CCN(C)CCC2CN(Cc3ccccc3)c3ccccc3O2)cc1OC (configuration not stated)

stdout:
1. 32
2. 48
3. 5
4. 26
5. 37
